SYSTEM_TESTED: hAM2 receptor (CALCRL:RAMP3) (Homo sapiens, UniProt O60896+Q16602)
Construct: expressed in transfected cells; host or cells: GeneBLAzer CALCRL:RAMP3-CRE-bla Freestyle 293F
Sequence (Q16602 23-461): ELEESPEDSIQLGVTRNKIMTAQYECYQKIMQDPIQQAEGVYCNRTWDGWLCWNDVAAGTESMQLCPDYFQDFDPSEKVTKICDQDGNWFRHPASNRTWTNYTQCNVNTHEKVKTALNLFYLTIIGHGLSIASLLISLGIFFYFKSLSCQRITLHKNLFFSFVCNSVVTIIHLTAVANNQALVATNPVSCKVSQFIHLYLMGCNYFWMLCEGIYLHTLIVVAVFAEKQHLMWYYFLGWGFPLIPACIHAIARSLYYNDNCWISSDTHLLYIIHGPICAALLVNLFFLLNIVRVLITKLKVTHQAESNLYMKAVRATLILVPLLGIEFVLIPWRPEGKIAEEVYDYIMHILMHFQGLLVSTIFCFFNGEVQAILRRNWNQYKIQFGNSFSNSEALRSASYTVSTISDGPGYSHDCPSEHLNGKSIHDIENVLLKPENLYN
Sequence (O60896 24-148): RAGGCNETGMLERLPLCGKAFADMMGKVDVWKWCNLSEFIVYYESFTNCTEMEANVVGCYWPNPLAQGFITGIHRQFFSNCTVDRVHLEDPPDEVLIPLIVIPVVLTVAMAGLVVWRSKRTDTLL
MEASUREMENT_NOTES: AM2 receptor antagonist activity measured by cAMP assay (HTRF)
Format: cell-based
RECORDED_CONDITIONS: % MPE: percent of the maximal possible effect; agonist human adrenomedullin; read-out: hAM2-R Efficacy Antag (%) Ave
Numbered stars: 1 amine (or outer) side, 2 acyl side, 3 side chain; on linkers, the order of the positions; unused ones are H or OH. Bridge positions count the residues as written; N and C are the ends. Square brackets hold non-standard residues; d marks the D form. Peptide text beside a SMILES is read from it. * marks the point of attachment. Phe(2-CONH2) = NC(=O)c1ccccc1C[C@H](N)C(=O)O; X5 = O=C([C@H](Cc1ccc(CO)cc1)N[*:1])[*:2]; Picolinoyl(5-F) = O=C(c1ccc(F)cn1)*; Orn(iPr) = CC(C)NCCC[C@H](N)C(=O)O; 3Pal = N[C@@H](Cc1cccnc1)C(=O)O; ΔPro = O=C(O)[C@@H]1C=CCN1; X7 = O=C(c1cc(F)ccn1)*
Catalogue of molecules with associated Emax
Remember to put the unit after the number in your answer.

CC(C)[C@@H]1NC(=O)[C@H](CC(=O)O)NC(=O)[C@H](CCCNC(=N)N)NC(=O)[C@@H](NC(=O)[C@H](Cc2ccc(O)cc2)NC(=O)[C@H](NC(=O)c2cc(F)ccn2)C(C)C)CSSC[C@@H](C(=O)N[C@@H](Cc2cccnc2)C(N)=O)NC(=O)[C@H](Cc2ccccc2)NC(=O)[C@@H]2CCCN2C(=O)CNC1=O [Compound 18] (X7-[dV]YCRDVGPFC[3Pal]-NH2; disulfide 3-10) :: 98%

We next turn to a different molecule, shown below.
Enquiry: Provide one value: measured Emax of CC(C)NCCC[C@@H]1NC(=O)[C@@H](NC(=O)[C@H](Cc2ccccc2C(N)=O)NC(=O)[C@H](NC(=O)c2ccc(F)cn2)C(C)C)CSSC[C@@H](C(=O)N[C@@H](Cc2cccnc2)C(N)=O)NC(=O)[C@H](Cc2ccc(CO)cc2)NC(=O)[C@@H]2C=CCN2C(=O)CNC(=O)[C@H](C(C)C)NC(=O)[C@H](CC(=O)O)NC1=O [Compound 63] ({Picolinoyl(5-F)}-[dV][Phe(2-CONH2)]C[Orn(iPr)]DVG[ΔPro][X5]C[3Pal]-NH2; disulfide 3-10)
Return: 98%
